# Tested on: A549
# assay.notes: Cytotoxicity against human A549 cells assessed as inhibition of cell growth incubated for 3 days by MTT assay
# Type: functional, cell-based
# experimental.conditions: A549, 72 h
observation.type: IC50 (µM)
Field format: number, assumed µM, no unit text.

Fill blank: measured IC50 of the compound `Cc1ncsc1-c1ccc(CNC(=O)[C@@H]2C[C@@H](O)CN2C(=O)[C@@H](NC(=O)CN2CCN(c3cc(-c4ccccc4OS(=O)(=O)c4ccc([N+](=O)[O-])cc4)nnc3N)CC2)C(C)(C)C)cc1` is ____.
9.1

Next:
Fill blank: measured IC50 of the compound `Cc1ncsc1-c1ccc(CNC(=O)[C@@H]2C[C@@H](O)CN2C(=O)[C@@H](NC(=O)CN2CCN(c3cc(-c4ccccc4O)nnc3N)CC2)C(C)(C)C)cc1` is ____.
1.3

---

# assay.notes: Cytotoxicity against human HuLEC-5a cells assessed as inhibition of cell growth incubated for 3 days by MTT assay
# Format: toxicity, cell-based
observation.type: IC50 at 3 days (µM)
Field format: number, assumed µM, no unit text.

Fill blank: measured IC50 at 3 days of the molecule `Cc1ncsc1-c1ccc(CNC(=O)[C@@H]2C[C@@H](O)CN2C(=O)[C@@H](NC(=O)CN2CCN(c3cc(-c4ccccc4O)nnc3N)CC2)C(C)(C)C)cc1` is ____.
24.5

---

# assay.notes: Stability of the compound in cell culture medium containing 10% fetal bovine serum assessed as drug degradation at 50 uM incubated for 12 hrs by HPLC analysis
# Format: physicochemical, cell-free
# experimental.conditions: cattle, read-out: Drug degradation
observation.type: degraded at 12 h, 50 µM

Fill blank: measured degraded at 12 h, 50 µM of the compound `Cc1ncsc1-c1ccc(CNC(=O)[C@@H]2C[C@@H](O)CN2C(=O)[C@@H](NC(=O)CN2CCN(c3cc(-c4ccccc4OS(=O)(=O)c4ccc([N+](=O)[O-])c(F)c4)nnc3N)CC2)C(C)(C)C)cc1` is ____.
> 60%
